The reported numbers originate from the supplement of paper PMC8975748.

# Test system: Saccharomyces cerevisiae BY4741 SeMeCo community
# method-description: z-score of subpopulation abundance vs DMSO median, subpopulation auxotrophic for HLM; higher = larger share of this subpopulation than in DMSO controls
# condition-info: 10 µM; 24 h; SM minimal medium; subpopulation (auxotrophy): HLM
Structures can show the parent of a compound that is named as a salt.
Kindly return YES if reported z-score of subpopulation abundance is no lower than -0.08; return NO if it is lower.

Asked: Record C=CC[C@]1(O)CC[C@H]2[C@@H]3CCC4=CC(=O)CCC4=C3C=C[C@@]21C ; criterion: z-score of subpopulation abundance no lower than -0.08. Met?
Given back: NO

Asked: Try the molecule CN[C@@H]1[C@@H](O)[C@@H](O[C@@H]2[C@@H](O)[C@H](O[C@H]3O[C@H](CN)CC[C@H]3N)[C@@H](N)C[C@H]2N)OC[C@]1(C)O.CN[C@@H]1[C@@H](O)[C@@H](O[C@@H]2[C@@H](O)[C@H](O[C@H]3O[C@H]([C@@H](C)N)CC[C@H]3N)[C@@H](N)C[C@H]2N)OC[C@]1(C)O.CN[C@@H]1[C@@H](O)[C@@H](O[C@@H]2[C@@H](O)[C@H](O[C@H]3O[C@H]([C@@H](C)NC)CC[C@H]3N)[C@@H](N)C[C@H]2N)OC[C@]1(C)O [Gentamicin Sulfate]
Given back: YES

Asked: Param item: CC[C@@]1(O)C(=O)OCc2c1cc1n(c2=O)Cc2cc3ccccc3nc2-1
Given back: NO

Asked: # iterate: O=c1cccc2n1C[C@@H]1CNC[C@H]2C1
Given back: NO

Asked: Repeat with N[C@@H]1C[C@H]1c1ccccc1 [Tranylcypromine (2-PCPA) HCl]
Given back: YES

Asked: Now consider C=CCN1C[C@H](C(=O)N(CCCN(C)C)C(=O)NCC)C[C@@H]2c3cccc4[nH]cc(c34)C[C@H]21 and answer again.
Given back: NO

Asked: Also COC(=O)C1=CCCN(C)C1 ?
Given back: YES

Asked: Entry O=[N+]([O-])C(Br)(CO)CO please
Given back: NO
